For each of the binders below, state its kon.
assayed_target: T1, monkey C5-mmh (monkey, UniProt P01031 19-1676 (human entry), limits assumed)
T1 construct: Recombinant monkey C5 with a C-terminal myc-myc-hexahistidine tag
T1 chain: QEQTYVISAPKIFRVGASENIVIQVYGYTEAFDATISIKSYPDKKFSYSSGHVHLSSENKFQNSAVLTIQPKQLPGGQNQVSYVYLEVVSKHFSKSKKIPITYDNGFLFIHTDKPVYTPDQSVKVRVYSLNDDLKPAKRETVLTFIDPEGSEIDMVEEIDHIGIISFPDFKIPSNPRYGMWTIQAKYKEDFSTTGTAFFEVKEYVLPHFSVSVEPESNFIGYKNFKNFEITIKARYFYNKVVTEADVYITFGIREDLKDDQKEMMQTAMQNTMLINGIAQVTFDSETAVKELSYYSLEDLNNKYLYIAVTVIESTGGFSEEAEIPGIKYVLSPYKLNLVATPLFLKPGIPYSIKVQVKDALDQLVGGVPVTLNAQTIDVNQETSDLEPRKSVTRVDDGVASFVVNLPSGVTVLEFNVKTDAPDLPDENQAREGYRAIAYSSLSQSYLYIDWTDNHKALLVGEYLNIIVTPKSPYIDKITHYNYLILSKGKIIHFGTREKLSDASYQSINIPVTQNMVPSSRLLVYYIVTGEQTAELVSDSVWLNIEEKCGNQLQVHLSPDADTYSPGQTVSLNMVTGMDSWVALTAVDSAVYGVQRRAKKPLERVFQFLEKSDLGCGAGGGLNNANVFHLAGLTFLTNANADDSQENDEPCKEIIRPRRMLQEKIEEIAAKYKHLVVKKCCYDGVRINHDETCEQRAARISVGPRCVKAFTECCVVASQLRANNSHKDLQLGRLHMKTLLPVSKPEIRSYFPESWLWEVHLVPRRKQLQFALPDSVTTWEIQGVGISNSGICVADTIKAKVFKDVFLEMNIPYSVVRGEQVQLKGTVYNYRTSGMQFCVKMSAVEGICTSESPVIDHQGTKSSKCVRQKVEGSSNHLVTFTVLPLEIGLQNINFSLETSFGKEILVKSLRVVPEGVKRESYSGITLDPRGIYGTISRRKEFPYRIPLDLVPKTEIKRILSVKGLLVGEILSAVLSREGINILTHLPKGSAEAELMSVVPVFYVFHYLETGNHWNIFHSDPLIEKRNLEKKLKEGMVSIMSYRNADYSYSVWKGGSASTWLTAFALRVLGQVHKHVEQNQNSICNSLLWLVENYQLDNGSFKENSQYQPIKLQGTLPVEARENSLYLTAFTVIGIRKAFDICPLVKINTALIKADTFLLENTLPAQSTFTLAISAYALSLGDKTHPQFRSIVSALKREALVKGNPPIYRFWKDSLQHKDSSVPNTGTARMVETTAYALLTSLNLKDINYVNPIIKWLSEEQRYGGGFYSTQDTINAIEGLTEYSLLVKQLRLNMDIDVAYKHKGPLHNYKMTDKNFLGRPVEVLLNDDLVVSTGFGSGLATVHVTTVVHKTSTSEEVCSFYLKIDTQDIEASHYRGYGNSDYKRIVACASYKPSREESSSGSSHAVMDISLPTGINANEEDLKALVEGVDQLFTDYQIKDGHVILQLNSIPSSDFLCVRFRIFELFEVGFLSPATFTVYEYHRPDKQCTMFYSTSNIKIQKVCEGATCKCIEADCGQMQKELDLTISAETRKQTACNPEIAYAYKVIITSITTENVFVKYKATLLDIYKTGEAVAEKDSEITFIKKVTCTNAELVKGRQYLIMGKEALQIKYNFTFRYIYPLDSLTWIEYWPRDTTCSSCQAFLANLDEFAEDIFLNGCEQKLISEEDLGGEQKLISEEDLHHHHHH
assay_remarks: SPR, mAb captured via anti-hFc, 37C
Numbers only, in M⁻¹ s⁻¹.

H4H12161P (antibody, human IgG4, V domains shown, Human IgG4 Fc with S108P hinge mutation (H4H)) VH: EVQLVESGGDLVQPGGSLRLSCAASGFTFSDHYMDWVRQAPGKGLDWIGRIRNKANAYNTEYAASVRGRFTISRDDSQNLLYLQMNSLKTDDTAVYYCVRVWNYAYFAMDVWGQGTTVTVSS VL: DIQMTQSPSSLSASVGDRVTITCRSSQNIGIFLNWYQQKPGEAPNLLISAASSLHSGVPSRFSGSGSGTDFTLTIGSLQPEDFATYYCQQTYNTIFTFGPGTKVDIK    134000

Switching to the query record.
kon in this record for H4H12163P (antibody, human IgG4, V domains shown, Human IgG4 Fc with S108P hinge mutation (H4H)) VH: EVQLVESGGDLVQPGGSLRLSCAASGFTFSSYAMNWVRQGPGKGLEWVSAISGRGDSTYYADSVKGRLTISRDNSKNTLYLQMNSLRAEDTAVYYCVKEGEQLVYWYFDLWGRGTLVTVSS VL: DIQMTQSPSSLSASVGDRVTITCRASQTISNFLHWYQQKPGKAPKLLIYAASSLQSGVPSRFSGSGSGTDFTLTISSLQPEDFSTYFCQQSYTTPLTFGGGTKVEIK : 390000

Data provenance is patent US20170355757A1.
